Cited source for all entries: patent EP4635969A1

Below is a list of entries, each paired with its recorded EC50 value.
Biological target: glucocorticoid receptor (GR) (Homo sapiens, UniProt P04150)
Sequence (P04150 521-777): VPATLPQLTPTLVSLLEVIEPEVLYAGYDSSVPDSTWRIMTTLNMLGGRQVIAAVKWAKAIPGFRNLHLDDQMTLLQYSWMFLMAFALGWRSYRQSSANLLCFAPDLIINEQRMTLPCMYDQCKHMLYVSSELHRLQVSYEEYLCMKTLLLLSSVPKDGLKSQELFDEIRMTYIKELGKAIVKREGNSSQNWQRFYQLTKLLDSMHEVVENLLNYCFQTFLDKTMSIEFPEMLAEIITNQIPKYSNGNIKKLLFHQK
Assay: Assay for agonist activity on glucocorticoid receptor (luciferase reporter, HEK293 cells transfected with pBIND-GR plasmid)
Type: cell-based
Conditions: HEK293 cells transfected with pBIND-GR, luciferase signal; read-out: GR agonist EC50
Response body: numeric value in nM, unit text excluded.

Task item: Requested read-out: EC50. Entry: C[C@]12C=CC(=O)C=C1CC[C@H]1[C@@H]3C[C@H]4OC(c5ccc(CNC6CCOC6=O)cc5)O[C@@]4(C(=O)CO)[C@@]3(C)C[C@H](O)[C@@]12Cl (some centres unmarked) [Compound 24]
Reply: 1.12

Task item: What does the data say about its EC50? Entry: C[C@]12C=CC(=O)C=C1CC[C@H]1[C@@H]3C[C@H]4OC(c5cnc(CSC6CCOC6=O)nc5)O[C@@]4(C(=O)CO)[C@@]3(C)C[C@H](O)[C@@]12Cl (some centres unmarked) [Compound 54]
Reply: 5.64

Task item: State the recorded EC50 for this entry: C[C@]12C=CC(=O)C=C1CC[C@H]1[C@@H]3C[C@H]4OC(c5ccc(CSC6CCOC6=O)cc5)O[C@@]4(C(=O)CO)[C@@]3(C)C[C@H](O)[C@@]12F (some centres unmarked) [Compound 17]
Reply: 0.3

Task item: Request the reported EC50 associated with C[C@]12C=CC(=O)C=C1[C@@H](F)C[C@H]1[C@@H]3C[C@H]4OC(C5CCC(NC(=O)C6COC(=O)C6)CC5)O[C@@]4(C(=O)CO)[C@@]3(C)C[C@H](O)[C@@]12F (some centres unmarked) [Compound 3]
Reply: 17.6

Task item: For the molecule shown here, C[C@]12C=CC(=O)C=C1[C@@H](F)C[C@H]1[C@@H]3C[C@H]4OC(c5ccc(CNC6COC(=O)C6)cc5F)O[C@@]4(C(=O)CO)[C@@]3(C)C[C@H](O)[C@@]12F (some centres unmarked) [Compound 12] , give the reported EC50.
Reply: 4.06
